- tested.system: T1, PSMA Fab (006 PSMA Fab)
- T1 construct: also called Anti-PSMA Fab; anti-PSMA Fab
- method.summary: clonal phage ELISA; biotinylated PSMA Fab on neutravidin plate, wells pre-incubated with PSMA antigen (competitor), anti-M13-HRP detection
Where no end group is shown, it is not given here.
readout.label: Phage binding ELISA signal, Anti-PSMA Fab in presence of PSMA antigen
Reply with just the number.

Worked cases, Phage binding ELISA signal, Anti-PSMA Fab in presence of PSMA antigen given:
* EYTWCKPAWMCDGV (cysteine pairing not given here; also: displayed on bacteriophage as fusion to pIII, linker not given here) [Phage-2717] | 0.0742
* NVKWCVPHWMCEVS [Phage-2721] | 0.0649
* DMHWCTPQWMCAPL (cysteine pairing not given here; also: displayed on bacteriophage as fusion to pIII, linker not given here) [Phage-2719] | 0.0856

Turning to the following binder.
// query Which value of Phage binding ELISA signal, Anti-PSMA Fab in presence of PSMA antigen has been reported for DYKWCTPMWMCEVV [Phage-2723] in the records?
// result 0.0761
